- MEASURED_ON: huPPARγ (Homo sapiens)
- Sequence (P37231 1-505): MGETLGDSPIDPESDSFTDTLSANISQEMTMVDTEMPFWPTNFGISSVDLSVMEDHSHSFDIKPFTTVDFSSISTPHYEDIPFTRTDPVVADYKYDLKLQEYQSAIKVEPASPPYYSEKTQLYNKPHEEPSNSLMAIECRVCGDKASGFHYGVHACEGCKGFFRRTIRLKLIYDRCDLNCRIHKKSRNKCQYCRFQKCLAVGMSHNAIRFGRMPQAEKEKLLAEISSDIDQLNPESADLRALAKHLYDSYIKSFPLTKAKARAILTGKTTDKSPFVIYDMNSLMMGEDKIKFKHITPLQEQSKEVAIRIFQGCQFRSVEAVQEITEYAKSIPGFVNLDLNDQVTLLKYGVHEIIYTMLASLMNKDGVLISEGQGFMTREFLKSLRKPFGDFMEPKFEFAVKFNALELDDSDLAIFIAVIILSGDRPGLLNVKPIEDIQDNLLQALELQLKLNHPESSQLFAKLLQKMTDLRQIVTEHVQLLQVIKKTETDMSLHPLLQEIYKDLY
- Sequence (P19793 1-462 partner): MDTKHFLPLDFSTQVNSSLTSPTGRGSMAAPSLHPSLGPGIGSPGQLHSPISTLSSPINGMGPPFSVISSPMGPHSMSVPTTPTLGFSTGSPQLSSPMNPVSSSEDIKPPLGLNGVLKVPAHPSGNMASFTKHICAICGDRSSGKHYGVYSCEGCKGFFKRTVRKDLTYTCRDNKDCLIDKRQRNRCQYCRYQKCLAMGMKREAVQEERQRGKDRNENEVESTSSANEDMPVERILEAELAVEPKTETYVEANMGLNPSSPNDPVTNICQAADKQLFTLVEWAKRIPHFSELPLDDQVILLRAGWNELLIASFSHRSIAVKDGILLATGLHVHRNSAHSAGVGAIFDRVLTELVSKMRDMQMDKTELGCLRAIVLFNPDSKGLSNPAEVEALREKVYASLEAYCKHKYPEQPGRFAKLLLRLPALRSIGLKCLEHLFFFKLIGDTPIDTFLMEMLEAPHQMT
- ASSAY_SUMMARY: DNA-dependent binding (ABCD binding) using SPA technology, huPPARγ
- SETTINGS: SPA displacement of tritium-labeled PPARγ agonist radioligand
// assign 1 (yes) if IC50 falls strictly below 70 nM, else 0 (no) (ties count as 0 (no))

COMPOUND | MEASURED_ON | CLASS_NAME
Cc1oc(-c2ccccc2)nc1CCOc1ccc(CC(C)(Oc2ccc(Cl)cc2)C(=O)O)cc1 (centres unmarked) [Example 29] | huPPARγ (Homo sapiens) | 1 (yes)
Cc1oc(-c2cccs2)nc1CCOc1ccc(CC(C)(Oc2ccc(C(F)(F)F)cc2)C(=O)O)cc1 (centres unmarked) [Example 51] | huPPARγ (Homo sapiens) | 0 (no)
Cc1oc(-c2ccccc2)nc1CCOc1ccc(CC(C)(Oc2ccc3c(c2)OCO3)C(=O)O)cc1 (centres unmarked) [Example 78] | huPPARγ (Homo sapiens) | 0 (no)
Cc1oc(C2CCCCC2)nc1CCOc1ccc(CC(C)(Oc2ccc(C(C)(C)C)cc2)C(=O)O)cc1 (centres unmarked) [Example 18] | huPPARγ (Homo sapiens) | 1 (yes)
Cc1oc(C2CCCCC2)nc1CCOc1ccc(CC(C)(Oc2ccc(Cl)cc2)C(=O)O)cc1 (centres unmarked) [Example 31] | huPPARγ (Homo sapiens) | 1 (yes)
Cc1ccc(OC(C)(Cc2ccc(OCCc3nc(C4CCCCC4)oc3C)cc2)C(=O)O)cc1 (centres unmarked) [Example 41] | huPPARγ (Homo sapiens) | 0 (no)
Cc1oc(C2CCCCC2)nc1CCOc1ccc(CC(C)(Oc2ccc(F)cc2)C(=O)O)cc1 (centres unmarked) [Example 65] | huPPARγ (Homo sapiens) | 0 (no)
Cc1oc(-c2cccs2)nc1CCOc1ccc(CC(C)(Oc2ccccc2F)C(=O)O)cc1 (centres unmarked) [Example 27] | huPPARγ (Homo sapiens) | 0 (no)
Cc1oc(-c2ccccc2)nc1CCCc1ccc(CC(C)(Oc2ccccc2)C(=O)O)s1 (centres unmarked) [Example 91] | huPPARγ (Homo sapiens) | 1 (yes)
Cc1oc(-c2cccc(Br)c2)nc1CCOc1ccc(CC(C)(Oc2ccccc2)C(=O)O)cc1 (centres unmarked) [Example 8] | huPPARγ (Homo sapiens) | 1 (yes)
Cc1oc(C2CCCCC2)nc1CCOc1ccc(CC(C)(Oc2ccc(C(F)(F)F)cc2)C(=O)O)cc1 (centres unmarked) [Example 52] | huPPARγ (Homo sapiens) | 0 (no)
Cc1oc(C2CCCCC2)nc1CCOc1ccc(CC(C)(Oc2cccc(F)c2)C(=O)O)cc1 (centres unmarked) [Example 23] | huPPARγ (Homo sapiens) | 0 (no)
